# System: RERF-LC-KJ
# experimental protocol: relative viability (nuclei count vs DMSO), 5 days (fraction); higher = more cells survive
# recorded conditions: first compound 0.3162 µM
property label: relative viability
Write the number on its own, no unit after it.

query: Recorded relative viability for CC(C)Oc1cc(Nc2nc(N[C@@H](C)c3ccc(F)cn3)ncc2Cl)n[nH]1 [AZ23] + Cc1nc(Nc2ncc(C(=O)Nc3c(C)cccc3Cl)s2)cc(N2CCN(CCO)CC2)n1 [Dasatinib] (partner 0.075 µM) , please?
result: 0.891

query: Request: CC(C)Oc1cc(Nc2nc(N[C@@H](C)c3ccc(F)cn3)ncc2Cl)n[nH]1 [AZ23] + CC(C)C[C@H](NC(=O)[C@H](Cc1ccccc1)NC(=O)c1cnccn1)B(O)O [Bortezomib] (partner 0.002 µM)
result: 1.17

query: Request: CC(C)Oc1cc(Nc2nc(N[C@@H](C)c3ccc(F)cn3)ncc2Cl)n[nH]1 [AZ23] + O=C(CCCCCCC(=O)Nc1ccccc1)NO [Vorinostat] (partner 1 µM)
result: 0.675

query: Now give it for CC(C)Oc1cc(Nc2nc(N[C@@H](C)c3ccc(F)cn3)ncc2Cl)n[nH]1 [AZ23] + C[C@@H](Oc1cc(-c2cnn(C3CCNCC3)c2)cnc1N)c1c(Cl)ccc(F)c1Cl [Crizotinib] (partner 1 µM) too.
result: 0.915

====

# Tested on: NCI-H1648
# experimental protocol: relative viability (nuclei count vs DMSO), 5 days (fraction); higher = more cells survive
# recorded conditions: first compound 4 µM
property label: relative viability
No unit in the answer, please; the number alone is enough.

query: Report relative viability for COc1cc(N2CCC(C(N)=O)CC2)ccc1Nc1nc(N)c(Cl)c(Nc2ccccc2S(=O)(=O)C(C)C)n1 [HG-5-88-01] + NC(=O)Nc1cc(-c2cccc(F)c2)sc1C(=O)N[C@H]1CCCNC1 [AZD7762] (partner 0.2 µM) please.
result: 0.654

query: Now consider Clc1ccc(Nc2nnc(Cc3ccncc3)c3ccccc23)cc1 [Vatalanib] + Nc1nc2[nH]cc(CCc3ccc(C(=O)N[C@@H](CCC(=O)O)C(=O)O)cc3)c2c(=O)[nH]1 [Pemetrexed] (partner 0.2 µM) and answer again.
result: 0.718

query: Repeat with Clc1ccc(Nc2nnc(Cc3ccncc3)c3ccccc23)cc1 [Vatalanib] + CC(=O)c1c(C)c2cnc(Nc3ccc(N4CCNCC4)cn3)nc2n(C2CCCC2)c1=O [Palbociclib] (partner 0.5 µM)
result: 0.302

====

# Tested on: HCC-827
# experimental protocol: relative viability (nuclei count vs DMSO), 5 days (fraction); higher = more cells survive
# recorded conditions: first compound 0.1265 µM
Mark YES only when relative viability stays strictly below 0.4. Values equal to the cut-off are NO.

query: Is relative viability strictly under 0.4 for the entry C[C@@H]1CN(CC(=O)Nc2ccc3c(c2)Cc2cccc(-c4cc(=O)cc(N5CCOCC5)o4)c2S3)C[C@H](C)O1 + O=C(CCCCCCC(=O)Nc1ccccc1)NO [Vorinostat] (partner 1 µM) ?
result: NO

query: Here is the next compound: Clc1ccc(Nc2nnc(Cc3ccncc3)c3ccccc23)cc1 [Vatalanib] + CC(C)C[C@H](NC(=O)[C@H](Cc1ccccc1)NC(=O)c1cnccn1)B(O)O [Bortezomib] (partner 0.002 µM)
result: NO

query: Lookup COc1cc(N2CCC(C(N)=O)CC2)ccc1Nc1nc(N)c(Cl)c(Nc2ccccc2S(=O)(=O)C(C)C)n1 [HG-5-88-01] + Nc1ncn([C@H]2C[C@H](O)[C@@H](CO)O2)c(=O)n1 [Decitabine] (partner 2 µM)
result: YES
